# RUN PARAMETERS: 328.15 K; 101.33 kPa; Liquid; Cone and plate viscometry
// bucketize viscosity: Low: < 70 mPa·s; Mid: ≥ 70 mPa·s and < 100 mPa·s; High: ≥ 100 mPa·s

- COMPOUND: "CCCCCCCCC[P+](CC)(CC)CC.O=[N+]([O-])c1cn[n-]c1 [triethylnonylphosphonium 4-nitropyrazolide]"
  CLASS: "Low"
- COMPOUND: "CCCCCCCCCCCCCC[P+](CCCCCC)(CCCCCC)CCCCCC.O=[N+]([O-])c1c[n-]cn1 [trihexyl(tetradecyl)phosphonium 4-nitroimidazolide]"
  CLASS: "High"
- COMPOUND: "CCC[n+]1ccn(C)c1C.O=[N+]([O-])c1cn[n-]c1 [1,2-dimethyl-3-propylimidazolium 4-nitropyrazolide]"
  CLASS: "Mid"
- COMPOUND: "CCCCCCCCCCCCCC[P+](CCCCCC)(CCCCCC)CCCCCC.Cc1ncc([N+](=O)[O-])[n-]1 [trihexyl(tetradecyl)phosphonium 2-methyl-5-nitroimidazolide]"
  CLASS: "High"

# bin lookup: classify CCCCCCn1cc[n+](C)c1C.O=[N+]([O-])c1cn[n-]c1 [1-hexyl-2,3-dimethylimidazolium 4-nitropyrazolide] by its viscosity High

Which class holds CCCCCCCCCCCCCC[P+](CCCCCC)(CCCCCC)CCCCCC.O=[N+]([O-])c1cn[n-]c1 [trihexyl(tetradecyl)phosphonium 4-nitropyrazolide] ? High

----------
# RUN PARAMETERS: 303.15 K; 101.33 kPa; Liquid; Cone and plate viscometry
RECORDED METRIC: viscosity (mPa·s)
Give bare numbers, in mPa·s.

- COMPOUND: "CCCCCCCCCCCCCC[P+](CCCCCC)(CCCCCC)CCCCCC.Clc1nc[n-]c1Cl [trihexyl(tetradecyl)phosphonium 4,5-dichloroimidazolide]"
  READOUT UNITS: "mPa·s"
  REPORTED RESULT: 566
- COMPOUND: "CCCCCCn1cc[n+](C)c1.N#Cc1ccc[n-]1 [1-hexyl-3-methylimidazolium 2-cyanopyrrolide]"
  READOUT UNITS: "mPa·s"
  REPORTED RESULT: 167
- COMPOUND: "CCCC[P+](CC)(CC)CC.Cc1ncc([N+](=O)[O-])[n-]1 [butyltriethylphosphonium 2-methyl-5-nitroimidazolide]"
  READOUT UNITS: "mPa·s"
  REPORTED RESULT: 277
- COMPOUND: "CCCCCCCCCC[P+](CC)(CC)CC.O=[N+]([O-])c1cn[n-]c1 [decyltriethylphosphonium 4-nitropyrazolide]"
  READOUT UNITS: "mPa·s"
  REPORTED RESULT: 236

Moving on to another compound below.
State the recorded viscosity for this entry: CCCCCCCCC[P+](CC)(CC)CC.O=[N+]([O-])c1cn[n-]c1 [triethylnonylphosphonium 4-nitropyrazolide] 213

----------
# RUN PARAMETERS: 313.15 K; 101.33 kPa; Liquid; Vibrating tube method
For each of the compounds below, state its mass density.
Give bare numbers, in kg/m3.

Consider the reported mass density for these compounds:
- COMPOUND: "CCCC[S+]1CCCC1.O=S(=O)([N-]S(=O)(=O)C(F)(F)F)C(F)(F)F"
  RECORDED METRIC: "mass density"
  REPORTED RESULT: 1441.1
- COMPOUND: "CCCCCCCCCC[P+](CC)(CC)CC.O=[N+]([O-])c1cn[n-]c1 [decyltriethylphosphonium 4-nitropyrazolide]"
  RECORDED METRIC: "mass density"
  REPORTED RESULT: 1002
- COMPOUND: "CCCCCCSC(N(C)C)=[N+](C)C.O=S(=O)([N-]S(=O)(=O)C(F)(F)F)C(F)(F)F"
  RECORDED METRIC: "mass density"
  REPORTED RESULT: 1325.8
- COMPOUND: "CCCCCCC[P+](CC)(CC)CC.O=[N+]([O-])c1cn[n-]c1 [triethylheptylphosphonium 4-nitropyrazolide]"
  RECORDED METRIC: "mass density"
  REPORTED RESULT: 1028.8

Please give mass density, item by item, for the list that follows.
1. CC(=O)[O-].CCCCCCn1cc[n+](C)c1 [3-hexyl-1-methylimidazolium acetate]
2. CCCCCCCC[P+](CC)(CC)CC.O=S(=O)([N-]S(=O)(=O)C(F)(F)F)C(F)(F)F [triethyloctylphosphonium bis(trifluoromethylsulfonyl)imide]
3. CCCCCCCCSC(N(C)C)=[N+](C)C.O=S(=O)([N-]S(=O)(=O)C(F)(F)F)C(F)(F)F
4. CCCCCCCCCCCCCC[P+](CCCCCC)(CCCCCC)CCCCCC.Cc1ncc([N+](=O)[O-])[n-]1 [trihexyl(tetradecyl)phosphonium 2-methyl-5-nitroimidazolide]
5. CCCCCCCCCCCCCC[P+](CCCCCC)(CCCCCC)CCCCCC.O=S(=O)([N-]S(=O)(=O)C(F)(F)F)C(F)(F)F

1. 1007.4
2. 1232.2
3. 1284
4. 929.8
5. 1054.4

Batch request: mass density per item, same order as input.
1. CCCCCCn1cc[n+](C)c1.O=[N+]([O-])c1cn[n-]c1 [1-hexyl-3-methylimidazolium 4-nitropyrazolide]
2. CCCCCCCC[P+](CC)(CC)CC.Cc1ncc([N+](=O)[O-])[n-]1 [triethyloctylphosphonium 2-methyl-5-nitroimidazolide]
3. CCCCCCCC[P+](CC)(CC)CC.O=[N+]([O-])c1c[n-]cn1 [triethyloctylphosphonium 4-nitroimidazolide]
4. CCCC[P+](CC)(CC)CC.Cc1ncc([N+](=O)[O-])[n-]1 [butyltriethylphosphonium 2-methyl-5-nitroimidazolide]

[1113.4, 1019.8, 1020.1, 1056.5]
